test: NCI Yeast Anticancer Drug Screen. Data for the rad18 strain (AID 177); details: S. cerevisiae rad18 mutant growth inhibition; at 1.2 µM; hits give high values
Compounds without any hit were thinned out: in the full panel of roughly 79,000, 15% have a hit.
So basically: growth inhibition at 20% or higher? That is rule met. Lower than 20%? That is rule not met.

Decide: growth inhibition of O=[N+]([O-])c1ccc(C=Cc2ccccc2)cc1.[C-]#[O+].[C-]#[O+].[C-]#[O+].[Cr] >= 20%? rule met

Check this molecule for growth inhibition at or above 20%: CN(C)CCC(C(=O)C(Br)Br)(c1ccccc1)c1ccccc1 rule not met

# bool: growth inhibition of CCOP(=S)(S)OCC.[Pd] >= 20% rule not met

Does the reported growth inhibition for COC(=O)C1=C(C(=O)OC)SC2(S1)C(C(=O)OC)=C(C(=O)OC)Sc1c2ssc1=O fall at or above the 20% mark? rule met

In plain terms: is recorded growth inhibition at least 20% for C[CH2][Sn]([CH2]C)([O]S(C)(=O)=O)[O]S(C)(=O)=O ? rule not met

Tell me whether growth inhibition is at least 20% here: CCC(=O)OC1CCn2c1nc1c2C(=O)C(C)=C(N2CC2)C1=O (stereo not drawn) rule met

Could you tell me if the measured growth inhibition of S=C1NC2(CCCCC2)NC12CCCCC2 reaches 20% or more? rule not met

Kindly determine if growth inhibition recorded for Cc1ccc2c(c1)C1(C)c3cc(C)ccc3SP1S2 (stereo not drawn) is above or exactly 20%. rule not met

====

experiment: NCI Yeast Anticancer Drug Screen. Data for the rad50 strain (AID 155);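 further: 0% = growth of vehicle-only cultures of the same strain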; conditions: S. cerevisiae rad50 strain growth inhibition; at 33.0 µM
About 79,000 compounds went through this panel and 15% of them were active in at least one assay; those are over-represented in the sample as a whole. Calls of active or inactive are those of the source. Cut-off read from the data, not from the text of the source: active = growth inhibition above about 70%; inactive = the rest.
// one of True (active), False (inactive), no free text

Per the assay record, what outcome was assigned to O=P(Oc1ccc(Cl)cc1)(Oc1ccc(Cl)cc1)N1CC1 ? False

Name the outcome recorded for O=[N+]([O-])c1cc([As](Br)c2ccc(O)c([N+](=O)[O-])c2)ccc1O in the assay. True

Given O=C(NNC(=O)OCC(Cl)(Cl)Cl)OCC(Cl)(Cl)Cl , state the outcome it received in this test. False

Assay outcome for O=C1NC(=S)NC(=O)C1=Cc1ccc([N+](=O)[O-])o1 : what was it? False

Test call for this compound, please: CC[C@](O)(C(=O)O)c1cc2n(c(=O)c1CO)Cc1cc3ccccc3nc1-2 True

Hello, I am checking results. What call was entered for COc1cc(O)c2c(O)c3c(c4c2c1[C@]1(C4)C(C)=CCCC1(C)C)[C@H](O)[C@@]1(O)CC(=O)C(C(N)=O)=C(O)[C@@]1(O)C3=O ? True

Hi team, can someone confirm the assay call for O=C1c2ccc3ccccc3c2CCC1N1CCCCC1 (stereo not given) ? True

Please state the recorded outcome for this compound: N#CC(C#N)=Cc1ccc(C#N)cc1 False

What did the test return for O=[N+]([O-])c1ccc(-n2nc3ccc4c(no[n+]4[O-])c3[n+]2[O-])c([N+](=O)[O-])c1 ? False

What classification did CCC1(OC(=O)CN)C(=O)OCc2c1cc1n(c2=O)Cc2cc3ccccc3nc2-1 (stereo not given) end up with in this test? True

====

test: NCI Yeast Anticancer Drug Screen. Data for the rad50 strain (AID 155);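 further: 0% = growth of vehicle-only cultures of the same strain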; conditions: S. cerevisiae rad50 strain growth inhibition; at 50.0 µM; hits give high values
This is part of a sample that, as a whole, favours compounds with a hit. Of some 79,000 tested, about 15% had one in any assay.
measured_parameter: growth inhibition (%)
Only the number, expressed in %, is required.

Give me measured growth inhibition, please, for this compound: C/C(CCl)=N/NC1=NC(c2ccccc2Cl)P(=O)(NCCCNP2(=O)SC(N/N=C(/C)CCl)=NC2c2ccccc2Cl)S1 (configuration not stated) 96

Please indicate growth inhibition recorded for FC(F)(F)c1nnn[n-]1.[Au+].c1ccc([PH+](c2ccccc2)c2ccccc2)cc1 97.6

Indicate its recorded growth inhibition; the compound in question is O=C(O)CCCOc1cc(Cl)c(Cl)cc1Cl 82

Annotate the compound CCOC(=S)S with its measured growth inhibition. 98.9

Determine from records and report growth inhibition for ClCc1nc2ccccc2[nH]1 88.7

Give me measured growth inhibition, please, for this compound: O=C1c2ccccc2[Se](=O)N1c1ccccc1 (configuration not stated) 93.1

Give the value of growth inhibition reported for the following: COc1ccccc1[As]=O (configuration not stated) 99.3

Given CS(=O)(=O)OCCN(CCOS(C)(=O)=O)c1ccc(C=O)cc1 , respond with its growth inhibition. 79.3

Report measured growth inhibition; entry is Clc1c(CI)ccc(CI)c1Cl 98.7

Provide measured growth inhibition value, entry: Cn1c(=O)c2[nH]cnc2n(C)c1=O.[CH2-]C(Cc1cccc2cc(C(=O)O)c(=O)oc12)OC.[Hg+2].[OH-] (configuration not stated) 46

Write down growth inhibition measured for item O=C(CCl)c1ccc(O)cc1 91.5

// Input: Cn1cc(/C=C/[N+](=O)[O-])c2ccccc21 . Output its growth inhibition only. 97.1

====

assay: NCI Yeast Anticancer Drug Screen. Data for the cln2 rad14 strain (AID 165);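 further: 0% = growth equal to vehicle treated cultures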; conditions: S. cerevisiae cln2 rad14 strain, at 5.0 µM (retest, dose inferred, filed as 0.5)
About 79,000 compounds went through this panel and 15% of them were active in at least one assay; those are over-represented in the sample as a whole. The source made the active and inactive calls. No stated cut-off is given here; in the data, active means growth inhibition above about 70%; inactive means the rest.
In this exercise, the only acceptable responses are 1 (yes) (active), 0 (no) (inactive)

# lookup: test call for Cc1cccc(C)c1NC(=O)/C(CC(=O)CC(c1ccccc1)c1c(O)c2ccccc2oc1=O)=N/O (stereo unspecified) 0 (no)

What call does the record list for CCC[CH2][Sn]1([CH2]CCC)[O]CC[S]1 ? 1 (yes)

Could you check what this test reported for C(=C/P(c1ccccc1)c1ccccc1)/P(c1ccccc1)c1ccccc1.C(=CP(c1ccccc1)c1ccccc1)P(c1ccccc1)c1ccccc1.[Pt] ? 0 (no)

Dear colleague, could you share the recorded outcome for CCC[CH2][Sn][Cl] when you have a moment? 1 (yes)

// return assay outcome for [Cl][Hg].c1ccc([As]c2ccc(-c3ccccc3)cc2)cc1 (stereo unspecified) 1 (yes)

Write down the call the test reported for this compound. Item: O=C1C(=O)c2ccccc2-c2ccccc21.O=C1C(=O)c2ccccc2-c2ccccc21.[Hg] 1 (yes)

Answer briefly: the call reported for c1cc2c(cc1NC1=NCCO1)CCCC2 in this assay. 0 (no)

Test call, this compound: C[n+]1ccccc1-c1nc(-c2cccc[n+]2C)nc(-c2cccc[n+]2C)n1 0 (no)

So what was the verdict on CN(N=O)C(=O)NNC(=O)N(C)N=O in this test? 0 (no)

Answer briefly: the call reported for CCC(C)(C)c1ccc(O)cc1 in this assay. 0 (no)

What did this assay record as the result for CCC(=O)C(CCN1CCC2(CCCc3ccccc32)CC1)(c1ccccc1)c1ccccc1 ? 0 (no)

====

test: NCI Yeast Anticancer Drug Screen. Data for the mlh1 rad18 strain (AID 175); details: S. cerevisiae mlh1 rad18 strain growth inhibition; at 50.0 µM; hits give high values
The panel holds about 79,000 compounds, 15% with a hit somewhere; the sample as a whole holds those more often.
measured_parameter: growth inhibition (%)
Answer format: numeric, % implied, no suffix.

Identify the reported growth inhibition for the following entry. O=[N+]([O-])c1ccc(N2CCC(CCCC3CCN(c4ccc([N+](=O)[O-])cc4[N+](=O)[O-])CC3)CC2)c([N+](=O)[O-])c1 68.3

Find the measured growth inhibition of O=[N+]([O-])c1cc([As](Br)c2ccc(O)c([N+](=O)[O-])c2)ccc1O and report it. 99.8

Entry C[C@]12Cc3conc3C(O)=C1CC[C@@H]1C2CC[C@@]2(C)C1CC[C@@H]2O (some centres undefined) needs its growth inhibition filled in; supply it. 78.2

Identify growth inhibition associated with the molecule NC(C(=O)O)c1ccccc1Cl (centres undefined) 13.9

Using the record for CC(C)(C)CC(C)(C)c1ccc(O)cc1 , state its measured growth inhibition. 99.6

Report growth inhibition for CCCCCCCC[N+](CCCC)(CCCC)CCCC (tested in a mixture with another compound) 99.3

Give a short answer stating reported growth inhibition for CC(Cc1ccccc1)[N+](=O)[O-] (centres undefined) . 12.1

Give the reported value of growth inhibition for this record: ClCCN(CCCl)c1ccc(CN2CCCN(Cc3ccc(N(CCCl)CCCl)cc3Cl)C2c2ccncc2)c(Cl)c1 97.1

Give recorded growth inhibition. Oc1c(Cl)c(Cl)c(Cl)c(Cl)c1Cl.[Cu+2] 88.6

Give a short answer stating reported growth inhibition for CN(C)c1ccc(C2N(Cc3ccc(N(CCCl)CCCl)cc3Cl)CCCN2Cc2ccc(N(CCCl)CCCl)cc2Cl)cc1 . 95.2

Recall and state the measured growth inhibition for ClCCN(CCCl)c1ccc(C2N(Cc3ccc(N(CCCl)CCCl)cc3Cl)CCCN2Cc2ccc(N(CCCl)CCCl)cc2Cl)cc1 . 98.2

State, in one line, measured growth inhibition of FC(F)(F)C1(C(F)(F)F)O[Te]2(OC1(C(F)(F)F)C(F)(F)F)OC(C(F)(F)F)(C(F)(F)F)C(C(F)(F)F)(C(F)(F)F)O2 92

Read off the recorded growth inhibition for CS(=O)(=O)[O-].CS(=O)(=O)[O-].NC1CCCCC1N.[Pt+4] (centres undefined) 88.3

Hello, please tell me recorded growth inhibition for this one: CCN(Cc1ccccc1)CC(O)c1ccc(Cl)c(Cl)c1 (centres undefined) 3.6

Please indicate growth inhibition recorded for C[N+]1(CCCl)CC[N+](C)(CCCl)CC1 (centres undefined) 97.6

Specify measured growth inhibition for CCN(CC)C1CC(O[C@H]2C[C@](O)(C(=O)CO)Cc3c(O)c4c(c(O)c32)C(=O)c2c(OC)cccc2C4=O)OC(C)C1O (some centres undefined) . 99.3

Respond only with growth inhibition recorded for N=P(c1ccccc1)(c1ccccc1)c1ccccc1 (tested in a mixture with another compound) 59.9

Note growth inhibition for the molecule shown: c1cc2c(cc1NC1=NCCO1)CCCC2 -41.1

Return the recorded growth inhibition value; entry: CC(CN1CCCCCCC1)C(C#N)(c1ccccc1)c1ccccc1 (centres undefined) 70.3

Please report growth inhibition for the following molecule: Cn1c2cccc(=O)c-2nc2ccccc21 60

Consider the molecule Cc1oc2c([N+](=O)[O-])cccc2c1[N+](=O)[O-] . State its measured growth inhibition. 99.7

Give the reported growth inhibition for this molecule. CCOP(=O)(OCC)Oc1cc(C)c(SC#N)c(C)c1 34

Write down growth inhibition measured for item O=C(/C=C(\c1ccccc1)N1CC1)c1ccccc1 67.5

Give growth inhibition for C[CH2][Sn]1([CH2]C)[O]C2C(O)OC(CO)C(O)C2[O]1 (centres undefined) 72.5

Output measured growth inhibition for this item: CCC[CH2][Sn]1([CH2]CCC)[O]C(c2ccccn2)S(=O)(=O)[O]1 (centres undefined) 88.3

Provide measured growth inhibition value, entry: O=C(O)C1(c2ccccc2)OC1c1ccccc1 (centres undefined) 84.3

Output growth inhibition of CC[N+](C)(CC)CCNC(=O)C(O)(c1ccccc1)c1ccccc1 94.4

Kindly indicate its recorded growth inhibition. Item: C[N+](C)=C1C=CC(=C2C=CSC=C2)C=C1 89.8

Provide growth inhibition value for the following molecule: [Br][Ni][Br].c1ccc(CN2CCN(Cc3ccccc3)CCN(Cc3ccccc3)CCN(Cc3ccccc3)CC2)cc1 98.2

Determine its reported growth inhibition: CC(C)c1c(O)c(O)c2c(c1O)C(=O)C(O)=C1C(C)(C)CCC[C@@]12C 80.4

Identify the reported growth inhibition for the following entry. CC[C@@]1(O)C[C@H](OC2CC(N(C)C)C(O)C(C)O2)c2c(O)c3c(c(O)c2[C@H]1OC1CC(N(C)C)C(O)C(C)O1)C(=O)c1cccc(O)c1C3=O (some centres undefined) 85

Tell me its growth inhibition given CCC[CH2][Sn]([F])([CH2]CCC)[O][Sn]([F])([CH2]CCC)[CH2]CCC as the entry. 98.2

Name the recorded growth inhibition of the molecule listed here: COc1cc(Br)cc(/C=C(\C)[N+](=O)[O-])c1O 99.7

Look up and report measured growth inhibition for this entry: CCC(C)(C)c1ccc(OP(=S)(S)Oc2ccc(C(C)(C)CC)cc2)cc1 90.5

Determine its reported growth inhibition: CC(C)NCC(O)c1ccc(O)c(O)c1.[Pt].c1ccc([PH+](c2ccccc2)c2ccccc2)cc1.c1ccc([PH+](c2ccccc2)c2ccccc2)cc1 98.8

Please look at this molecule and report its growth inhibition: O=C1c2ccccc2C(=O)C(Cl)C1Cl (centres undefined) 99.3

Dear colleague, please send me the reported growth inhibition for COc1cc(C=Nc2cc[c]([Hg][O]C(C)=O)cc2)ccc1O when you can. 99.3

Identify measured growth inhibition corresponding to O=S(=O)(O)O.[Pt].c1ccc([PH+](c2ccccc2)c2ccccc2)cc1.c1ccc([PH+](c2ccccc2)c2ccccc2)cc1.c1ccc([PH+](c2ccccc2)c2ccccc2)cc1 95.2

Please give measured growth inhibition of the following entry: C=C[C@H]1CN2CC[C@H]1C[C@@H]2[C@@H](O)c1ccnc2ccccc12 7.65

Sourced from PubChem BioAssay (NCI)
